What CC50 at 48 h was measured for each of the following?
- assay_method_text: in vitro
- Type: cell-based
- condition_info: human, CC50

[in] Give the value of CC50 at 48 h reported for the following: CN(C)CCOc1ccc(-c2ccccc2)c2ccccc12
[out] 28.7 µM

[in] Determine from records and report CC50 at 48 h for CN(C)CCOc1cccc(C(=O)c2ccccc2)c1
[out] ~100 µM

[in] Quick one: give measured CC50 at 48 h for CN1CCN(CCOc2cc(C(=O)c3ccccc3)cc3ccccc23)CC1
[out] 20 to 100 µM

[in] Answer with the recorded CC50 at 48 h of CN(C)CCOc1ccc2c(c1)Cc1ccccc1-2 only.
[out] ~100 µM

[in] // fetch CC50 at 48 h given entry CN(C)CCOc1cc(C(=O)c2ccccc2)cc2ccccc12
[out] 49.7 µM

[in] Give me measured CC50 at 48 h, please, for this molecule: CN(C)CCOc1ccc2c(c1)C(=O)c1ccccc1-2
[out] > 100 µM
